ELISA CD137-Fc (RLU) values by entry
target: T1, recombinant biotinylated human CD137 protein (Fc-fusion protein, R&D Systems 838-4B) (human, UniProt Q07011 24-186, biotinylated (site not stated))
T1 construct: Bought Fc fusion; The ELISA used the same antigen as the panning; also called CD137-Fc; biotinylated CD137; not shown: Fc part of the bought fusion protein
test: ELISA, bacterial lysate on plate-bound antigen, luminescence

binder	units_symbol	ELISA CD137-Fc (RLU)
ISOP120HR5P1G6 (designed binder, not shown: small tags and cut ends, FN3 domain (Centyrin); tested as E. coli lysate) LPAPKNLVVSRVTEDSARLSWTAPDAAFDSFEIYYFELRLGGEAIVLTVPGSERSYDLTGLKPGTEYLVTIYGVKGGLDSQPLSAIFTT	RLU	2.04e+06
ISOP120AR5P1D9 (designed binder, not shown: small tags and cut ends, FN3 domain (Centyrin); tested as E. coli lysate) LPAPKNLVVSRVTEDSARLSWNTDWVHTFDSFLIQYQESEKVGEAIVLTVPGSERSYDLTGLKPGTEYTVSIYGVGRHYTVYDSNPLSAIFTT	RLU	636000
ISOP120ER5P1B12 (designed binder, not shown: small tags and cut ends, FN3 domain (Centyrin); tested as E. coli lysate) LPAPKNLVVSRVTEDSARLSWTAPDAAFDSFAIYYIEWTAYGEAIVLTVPGSERSYDLTGLKPGTEYVVRISGVKCGIVSFPLSAIFTT	RLU	1.44e+06
ISOP120ER5P1H6 (designed binder, not shown: small tags and cut ends, FN3 domain (Centyrin); tested as E. coli lysate) LPAPKNLVVSRVTEDSARLSWTAPDAAFDSFSIYYGEWHALGEAIVLTVPGSERSYDLTGLKPGTEYVVTIYGVKGGTYSLPLSAIFTT	RLU	589000
ISOP120HR5P1F9 (designed binder, not shown: small tags and cut ends, FN3 domain (Centyrin); tested as E. coli lysate) LPAPKNLVVSRVTEDSARLSWTAPDAAFDSFYIYYREHWTIGEAIVLTVPGSERSYDLTGLKPGTEYLVTIYGVKGGAYSNPLSAIFTT	RLU	1.18e+06
ISOP120HR5P1H8 (designed binder, not shown: small tags and cut ends, FN3 domain (Centyrin); tested as E. coli lysate) LPAPKNLVVSRVTEDSARLSWTAPDAAFDSFDIYYYELRLGGEAIVLTVPGSERSYDLTGLKPGTEYLVTIYGVKGGYYSGPLSAIFTT	RLU	2.22e+06
ISOP120HR5P1E7 (designed binder, not shown: small tags and cut ends, FN3 domain (Centyrin); tested as E. coli lysate) LPAPKNLVVSRVTEDSARLSWTAPDAAFDSFQIYYLEQLGYGEAIVLTVPGSERSYDLTGLKPGTEYLVTIYGVKVCEQSYPLSAIFTT	RLU	363000
ISOP120AR5P1C4 (designed binder, not shown: small tags and cut ends, FN3 domain (Centyrin); tested as E. coli lysate) LPAPKNLVVSRVTEDSARLSWAFQWHIFDSFLIQYQESEKVGEAIVLTVPGSERSYDLTGLKPGTEYTVSIYGVGQPYTVYDSNPLSAIFTT	RLU	708000
ISOP120BR5P1H3 (designed binder, not shown: small tags and cut ends, FN3 domain (Centyrin); tested as E. coli lysate) LPAPKNLVVSRVTEDSARLSWEESRQFFDSFLIQYQESEKVGEAIVLTVPGSERSYDLTGLKPGTEYTVSIYGVVHRAWLRWNGSNPLSAIFTT	RLU	875000
ISOP120ER5P1B4 (designed binder, not shown: small tags and cut ends, FN3 domain (Centyrin); tested as E. coli lysate) LPAPKNLVVSRVTEDSARLSWTAPDAAFDSFSILYGEPPALGEAIVLTVPGSERSYDLTGLKPGTEYWVTIYGVKGGVFSHPLSAIFTT	RLU	499000
ISOP120FR5P1A6 (designed binder, not shown: small tags and cut ends, FN3 domain (Centyrin); tested as E. coli lysate) LPAPKNLVVSRVTEDSARLSWTAPDAAFDSFIIRYLEDISYGEAIVLTVPGSERSYDLTGLKPGTEYHVGIEGVKGGNVSFPLSAIFTT	RLU	1.4e+06
ISOP120ER5P1A8 (designed binder, not shown: small tags and cut ends, FN3 domain (Centyrin); tested as E. coli lysate) LPAPKNLVVSRVTEDSARLSWTAPDAAFDSFDIYYFEHPVGGEAIVLTVPGSERSYDLTGLKPGTEYLVTIYGVKGGYLSMPLSAIFTT	RLU	1.9e+06
ISOP120FR5P1H5 (designed binder, not shown: small tags and cut ends, FN3 domain (Centyrin); tested as E. coli lysate) LPAPKNLVVSRVTEDSARLSWTAPDAAFDSLQIYYFEWVVGGEAIVLTVPGSERSYDLTGLKLGTEYLVTIYGVKGGNFSDPLSAIFTT	RLU	460000
ISOP120BR5P1E6 (designed binder, not shown: small tags and cut ends, FN3 domain (Centyrin); tested as E. coli lysate) LPAPKNLVVSRVTEDSARLSWLEGANAEFDSFLIQYQESEKVGEAIVLTVPGSERSYDLTGLKPGTEYTVSIYGVHWVGPWYPVSNPLSAIFTT	RLU	779000
ISOP120FR5P1E9 (designed binder, not shown: small tags and cut ends, FN3 domain (Centyrin); tested as E. coli lysate) LPAPKNLVVSRVTEDSARLSWTAPDAAFDSFIIYYPEYISNGEAIVLTVPGSERSYDLTGLKPGTEYHVTIGVKGGHSWPLSAIFTT	RLU	1.18e+06
ISOP120BR5P1E8 (designed binder, not shown: small tags and cut ends, FN3 domain (Centyrin); tested as E. coli lysate) LPAPKNLVVSRVTEDSARLSWNGGEYWVPRFDSFLIQYQESEKVGEAIVLTVPGSERSYDLTGLKPGTEYTVSIYGVVWLQWISWTDSNPLSAIFTT	RLU	906000
ISOP120BR5P1C7 (designed binder, not shown: small tags and cut ends, FN3 domain (Centyrin); tested as E. coli lysate) LPAPKNLVVSRVTEDSARLSWNVTQKEFDSFLIQYQESEKVGEAIVLTVPGSERSYDLTGLKPGTEYTVSIYGVGNRYYTVYDSNPLSAIFTT	RLU	306000
ISOP120GR5P1G3 (designed binder, not shown: small tags and cut ends, FN3 domain (Centyrin); tested as E. coli lysate) LPAPKNLVVSRVTEDSARLSWTAPDAAFDSFYIRYWEFCHSGEAIELSVPGSERSYDLTGLKPGTEYFVRIVGVKGGRVSLPLGAKFTT	RLU	1.34e+06
